Reference source for all entries: patent US9255090B2

- System: eosinophils
- Assay Overview: Eosinophil shape change assay with human plasma
- Type: cell-based
- Condition Description: Homo sapiens, Eosinophil, human plasma (50%), PGD2 100 nM activation, antagonistic activity
Mark condition met for IC50 under 0.01 µM, condition not met if at or over.

Molecule	Group
CCOc1ccc(CC(=O)O)cc1-c1ccc(F)c2c1CN(C(=O)OCc1ccc(F)cc1F)CC2	condition not met
CC(C)Oc1ccc(CC(=O)O)cc1-c1ccc(C#N)c2c1CN(C(=O)OCc1ccccc1)CC2	condition not met
COc1ccc(CC(=O)O)cc1-c1ccc(F)c2c1CN(C(=O)CC1OCCc3ccccc31)CC2 (racemic)	condition not met
CC(C)(C)Oc1ccc(CC(=O)O)cc1-c1ccc(F)c2c1CN(C(=O)OCc1ccccc1)CC2	condition not met
COc1cc(CC(=O)O)ccc1-c1ccc(F)c2c1CN(C(=O)CCc1ccccc1C)CC2	condition not met
CCOc1ccc(CC(=O)O)cc1-c1ccc(F)c2c1CN(C(=O)[C@@H]1C[C@H]1c1ccccn1)CC2 (racemic)	condition not met
COc1ccc(CC(=O)O)cc1-c1ccc(F)c2c1CN(C(=O)[C@@H]1C[C@H]1c1ccccc1)CC2 (racemic) [Example 60]	condition not met
CCOc1ccc(CC(=O)O)cc1-c1ccc(F)c2c1CN(C(=O)CC(C)c1cccc(C)n1)CC2 (racemic)	condition not met
CCOc1ccc(CC(=O)O)cc1-c1ccc(F)c2c1CN(C(=O)CC1(c3ccc(F)cc3)CC1)CC2	condition not met
CCOc1ccc(CC(=O)O)cc1-c1ccc(F)c2c1CN(C(=O)CCc1ccc(F)cc1)CC2	condition met
CCOc1ccc(CC(=O)O)cc1-c1ccc(F)c2c1CN(C(=O)CC(C)c1ccc(F)cc1)CC2 (racemic) [Example 278]	condition not met
COc1ccc(CC(=O)O)cc1-c1cc(F)c(F)c2c1CN(C(=O)[C@@H]1C[C@H]1c1ccccc1)CC2	condition met
COc1ccc(CC(=O)O)cc1-c1ccc(F)c2c1CN(C(=O)OCc1cccc(F)c1)CC2	condition not met
CCOc1cc(CC(=O)O)ccc1-c1ccc(F)c2c1CN(C(=O)OCc1cc(Cl)ccc1F)CC2	condition met
CCOc1ccc(CC(=O)O)cc1-c1ccc(F)c2c1CN(C(=O)OCc1ncc(C)cc1F)CC2	condition not met

* * *

- System: hCRTH2 receptor (Homo sapiens (Human))
- Sequence (Q9Y5Y4 whole entry): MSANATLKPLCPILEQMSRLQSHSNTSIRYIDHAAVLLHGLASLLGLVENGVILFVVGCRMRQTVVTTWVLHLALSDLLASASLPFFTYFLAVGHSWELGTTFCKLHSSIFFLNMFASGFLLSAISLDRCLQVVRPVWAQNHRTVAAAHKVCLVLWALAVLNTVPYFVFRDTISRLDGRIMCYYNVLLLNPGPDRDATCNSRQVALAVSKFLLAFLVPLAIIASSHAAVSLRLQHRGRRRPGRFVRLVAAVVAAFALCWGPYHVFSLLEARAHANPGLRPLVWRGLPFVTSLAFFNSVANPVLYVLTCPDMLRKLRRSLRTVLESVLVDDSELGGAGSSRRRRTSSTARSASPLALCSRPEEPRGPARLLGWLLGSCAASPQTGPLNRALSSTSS
Where a name gives a salt, the structure may show the parent alone.
Experimental Endpoint: log10 of IC50 (log10 of the value in nM)

Compound	Experimental Endpoint	Endpoint Result
COc1ccc2onc(CC(=O)N3CCc4c(F)ccc(-c5cc(CC(=O)O)ccc5OC)c4C3)c2c1	log10 of IC50	1.73
COc1ccc(CC(=O)O)cc1-c1ccc(F)c2c1CN(C(=O)CN(C)C(c1ccccc1)c1ccc(Cl)cc1)CC2 (racemic)	log10 of IC50	1.03
COc1ccc(CC(=O)O)cc1-c1ccc(F)c2c1CN(C(=O)CC1CCCc3ccccc31)CC2 (racemic)	log10 of IC50	0.69
COc1ccc(CC(=O)O)cc1-c1ccc(F)c2c1CN(C(=O)C(C)Cc1ccccc1)CC2 (racemic)	log10 of IC50	1.46
CCC(Oc1ccc(OC)c(-c2ccc(F)c3c2CN(C(=O)OCc2ccccc2)CC3)c1)C(=O)O (racemic)	log10 of IC50	2.53
CC(C)Oc1ccc(OCC(=O)O)cc1-c1ccc(F)c2c1CN(C(=O)[C@@H]1C[C@H]1c1ccccc1)CC2	log10 of IC50	0.14
COc1cc(CC(=O)O)ccc1-c1ccc(F)c2c1CN(C(=O)[C@@H]1C[C@H]1c1ccccc1)CC2	log10 of IC50	-0.05
CCOc1ccc(CC(=O)O)cc1-c1ccc(F)c2c1CN(C(=O)CCc1ccccc1F)CC2	log10 of IC50	0.68
COc1cc(CC(=O)O)ccc1-c1ccc(F)c2c1CN(C(=O)CCCc1ccccc1)CC2	log10 of IC50	-0.05
CCOc1ccc(CC(=O)O)cc1-c1ccc(F)c2c1CN(C(=O)O[C@H](C)c1ccccc1)CC2	log10 of IC50	0.78
COc1ccc(CC(=O)O)cc1-c1ccc(F)c2c1CN(C(=O)CC1CCCc3ccncc31)CC2 (racemic) [Example 247, hydrochloride]	log10 of IC50	2.68
CCOc1cc(CC(=O)O)ccc1-c1ccc(F)c2c1CN(C(=O)OCC1CCCCC1)CC2	log10 of IC50	0.83
CCOc1cc(CC(=O)O)ccc1-c1ccc(F)c2c1CN(C(=O)CC1COc3ccccc31)CC2 (racemic)	log10 of IC50	-0.52
O=C(O)Cc1ccc(OC(F)(F)F)c(-c2ccc(F)c3c2CN(C(=O)[C@@H]2C[C@H]2c2ccccc2)CC3)c1	log10 of IC50	0.49
CC(C)(CC(=O)N1CCc2c(F)ccc(-c3cc(CC(=O)O)ccc3OCC(F)(F)F)c2C1)c1ccccc1	log10 of IC50	1.17
